target: Lysine-specific demethylase 5B (Homo sapiens) (UniProt Q9UGL1); experiment: Primary screen for KDM5B Histone Demethylases FDH-coupled qHTS; settings: FDH-coupled NADH fluorescence; series mostly up to 57.7 µM; note: nearly all actives have a fitted effect of over 70% in size
Sequence (Q9UGL1 whole entry, looked up): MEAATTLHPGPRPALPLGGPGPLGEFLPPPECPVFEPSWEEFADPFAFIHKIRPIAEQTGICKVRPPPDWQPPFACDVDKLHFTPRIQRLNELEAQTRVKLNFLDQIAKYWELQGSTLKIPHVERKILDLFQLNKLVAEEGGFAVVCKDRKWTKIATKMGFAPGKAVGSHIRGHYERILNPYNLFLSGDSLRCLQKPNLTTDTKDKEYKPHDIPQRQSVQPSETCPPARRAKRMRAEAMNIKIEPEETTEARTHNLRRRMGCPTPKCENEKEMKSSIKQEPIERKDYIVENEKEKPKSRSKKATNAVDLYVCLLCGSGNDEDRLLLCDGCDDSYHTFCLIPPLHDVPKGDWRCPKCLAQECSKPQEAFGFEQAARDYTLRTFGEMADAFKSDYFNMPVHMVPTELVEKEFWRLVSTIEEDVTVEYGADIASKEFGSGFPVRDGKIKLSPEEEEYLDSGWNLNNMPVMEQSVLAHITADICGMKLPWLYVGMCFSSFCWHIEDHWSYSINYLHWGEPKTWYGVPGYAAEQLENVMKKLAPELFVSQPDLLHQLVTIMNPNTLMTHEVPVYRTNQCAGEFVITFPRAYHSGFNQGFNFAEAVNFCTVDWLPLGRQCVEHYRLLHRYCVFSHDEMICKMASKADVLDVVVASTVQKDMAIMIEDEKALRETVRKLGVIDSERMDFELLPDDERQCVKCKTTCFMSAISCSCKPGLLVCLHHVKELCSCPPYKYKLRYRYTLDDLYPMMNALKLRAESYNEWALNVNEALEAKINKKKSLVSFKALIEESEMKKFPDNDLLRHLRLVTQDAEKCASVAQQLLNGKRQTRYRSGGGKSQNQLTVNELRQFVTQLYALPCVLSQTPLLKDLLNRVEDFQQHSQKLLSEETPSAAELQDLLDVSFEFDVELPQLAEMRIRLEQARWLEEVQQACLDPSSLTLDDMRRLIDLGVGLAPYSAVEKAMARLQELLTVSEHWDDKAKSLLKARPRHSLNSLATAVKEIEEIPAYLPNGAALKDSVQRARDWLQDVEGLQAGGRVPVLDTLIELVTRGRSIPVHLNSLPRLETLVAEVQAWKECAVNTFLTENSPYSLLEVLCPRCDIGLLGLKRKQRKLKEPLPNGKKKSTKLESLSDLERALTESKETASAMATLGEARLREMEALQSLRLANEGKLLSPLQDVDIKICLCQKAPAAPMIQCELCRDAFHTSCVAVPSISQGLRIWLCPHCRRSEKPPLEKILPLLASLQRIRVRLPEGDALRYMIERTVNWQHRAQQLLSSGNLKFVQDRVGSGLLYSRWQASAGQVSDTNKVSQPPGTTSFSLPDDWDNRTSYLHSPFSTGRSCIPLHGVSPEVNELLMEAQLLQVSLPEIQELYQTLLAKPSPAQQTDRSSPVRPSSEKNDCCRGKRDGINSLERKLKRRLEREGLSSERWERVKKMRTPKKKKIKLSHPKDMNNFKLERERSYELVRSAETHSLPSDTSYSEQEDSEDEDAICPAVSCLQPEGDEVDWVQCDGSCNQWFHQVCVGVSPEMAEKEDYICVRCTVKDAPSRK
Screen size: about 220,000 compounds; about 5,700 (2.6%) were called active. About 18% were inconclusive and are not listed. Calls come from the whole dose curve; as a rule, active = well fitted inhibition curve with a large enough effect; inconclusive = small, poorly fitted or top-dose-only effect; inactive = no such curve, though single readings can be large or run the other way. The full list was thinned out, with actives kept by preference.
Can you answer with just one of these options? active, inactive

Here's what some known entries look like.
compound: Cc1cc(OCC(=O)N2CCN(c3ncccn3)CC2)ccc1Cl
cat: inactive
--
compound: COc1ccc(OCC2(C)COc3ccc(C(=O)NC4CCOCC4)cc3N2)cc1 (stereo unspecified)
cat: active
--
compound: Cc1cc(NC(=O)Nc2c(C3=CCCCC3)c(C)nn2C)ccc1Br
cat: inactive
--
compound: O=C(Nc1cccnc1)c1ccc2c(c1)OCCN(Cc1ncccn1)C2
cat: inactive
--
compound: Cc1cc(Nc2cccc(Cl)c2)n2nc(Cc3ccccc3)nc2n1
cat: inactive

Now examine the next entry.
Hi team, can someone confirm the assay call for OC(c1nc2ccc(F)cc2[nH]1)C(O)c1nc2ccc(F)cc2[nH]1 (stereo unspecified) ?
inactive

----------
target: Lysine-specific demethylase 5B (Homo sapiens) (UniProt Q9UGL1); test: Primary screen for KDM5B Histone Demethylases FDH-coupled qHTS; settings: FDH-coupled NADH fluorescence; series mostly up to 57.7 µM; note: nearly all actives have a fitted effect of over 70% in size
About 5,700 (2.6%) of roughly 220,000 compounds were called active. About 18% were inconclusive and are not listed. Calls come from the whole dose curve; as a rule, active = well fitted inhibition curve with a large enough effect; inconclusive = small, poorly fitted or top-dose-only effect; inactive = no such curve, though single readings can be large or run the other way. The sample holds actives, similar compounds and a random draw of the others, so the mix is not that of the screen.
Can you answer with just one of these options? active, inactive

Here's what some known entries look like.
compound: CC1CCCC(NC(=O)c2ccccc2)C1C (stereo unspecified)
cat: inactive
--
compound: CC(=O)N1CCC(Cc2ccc(C(=O)NC3CC3)cc2)CC1
cat: inactive
--
compound: CCCN1C(=O)Cc2cc(C(=O)NC3CC3)ccc21
cat: inactive
--
compound: CC(=O)N1CCCC2(C1)CN(C)c1ccc(C(=O)NC3CC3)cc12 (stereo unspecified)
cat: active
--
compound: O=C(NC1CCCCC1)c1ccc2c(c1)N(Cc1ccc(Cl)cc1)C(=O)c1ccccc1S2=O (stereo unspecified)
cat: inactive

Hi team, can someone confirm the assay call for Cc1cc(CNC(=O)c2ccc(-c3ccccc3Cl)o2)n(C)n1 ?
active

Hi team, can someone confirm the assay call for O=C(NCCN1CCCCC1)C(=O)Nc1cccc2[nH]ccc12 ?
inactive

Hi team, can someone confirm the assay call for O=C(NC1CC1)c1ccc2c(c1)C1(CCN(CC3CC3)C1)CN2Cc1ccccc1 (stereo unspecified) ?
active

----------
target: Lysine-specific demethylase 5B (Homo sapiens); test: Primary screen for KDM5B Histone Demethylases FDH-coupled qHTS; conditions: FDH-coupled NADH fluorescence (FDH is formaldehyde dehydrogenase); series mostly up to 57.7 µM; note: nearly all actives have a fitted effect of over 70% in size
The campaign covered roughly 220,000 compounds. About 5,700 (2.6%) were called active. Inconclusive results (about 18%) are left out. Calls follow the shape of the dose curve; as a rule, active = well fitted inhibition curve with a large enough effect; inconclusive = small, poorly fitted or top-dose-only effect; inactive = no such curve, though single readings can be large or run the other way. This is one part of a sample in which actives are shown more often than they occur.
Can you answer with just one of these options? active, inactive

Hi team, can someone confirm the assay call for Nc1nc2ccc([N+](=O)[O-])cc2[n+]([O-])n1 ?
inactive

Hi team, can someone confirm the assay call for CCc1ccc(CCC(=O)NC)cc1 ?
inactive

Hi team, can someone confirm the assay call for CC(=O)c1ccc(NC(=O)COC(=O)C2CCN(c3ccc(C(F)(F)F)cn3)CC2)cc1 ?
inactive

Hi team, can someone confirm the assay call for O=C(c1cnccn1)N1CC2CC(C1)[C@H]1CCCC(=O)N1C2 (stereo not given in full) ?
inactive

Hi team, can someone confirm the assay call for O=C(Nc1ccccc1F)c1ccc2c(c1)n(Cc1ccccc1)c(=O)c1ccnn12 ?
active

Hi team, can someone confirm the assay call for CCC1(C)CC(CC(=O)OC(C)CN(C)C)(c2ccccc2)CCO1 (stereo not given) ?
inactive

Hi team, can someone confirm the assay call for CC(C)(C)c1ccc(C(=O)Nc2nc3c(s2)C[C@@H]2[C@](C)(CO)[C@H](O)CC[C@@]2(C)[C@@H]3CC(=O)NCc2cccs2)cc1 ?
active
